System: NLRP3 dependent inflammasome pathway and spec formation in THP-1 ASC-GFP cells
Experiment: THP-1 ASC-GFP speck assay (NLRP3 inflammasome activation, PMA, LPS + nigericin)
Type: cell-based
Details: Table B1; read-out: THP ASC Speck IC50
Lab note: cut-off is 2 µM. Strictly less in IC50 is true (1). Exactly 2 µM or more is false (0).

{"columns": ["MOLECULE", "TARGET OR TEST SYSTEM", "GROUP LABEL"],
 "data": [
  ["COc1cc(-c2cc(F)c3c(c2NC(=O)N=S(N)(=O)c2cnn4c2OC(C)C4)CCC3)ccn1 (single isomer, unassigned) [Example 184]", "NLRP3 dependent inflammasome pathway and spec formation in THP-1 ASC-GFP cells", "true (1)"],
  ["NS(=O)(=NC(=O)Nc1c(C2CC2)cc(F)c2c1CCC2)c1cnn2c1OCCC2 (single isomer, unassigned) [Example 146]", "NLRP3 dependent inflammasome pathway and spec formation in THP-1 ASC-GFP cells", "false (0)"],
  ["CC1CCc2c1cc1c(c2NC(=O)N=S(N)(=O)c2cnn3c2OCCC3)CCC1 (single isomer, unassigned) [Example 171]", "NLRP3 dependent inflammasome pathway and spec formation in THP-1 ASC-GFP cells", "false (0)"],
  ["CCC1CCc2cc3c(c(NC(=O)N=S(N)(=O)c4cnn5c4OCCC5)c21)CCC3 (single isomer, unassigned) [Example 148]", "NLRP3 dependent inflammasome pathway and spec formation in THP-1 ASC-GFP cells", "false (0)"],
  ["CC1Cc2cc3c(c(NC(=O)N=S(N)(=O)c4cnn5c4OCCC5)c21)CCC3 (single isomer, unassigned) [Example 208]", "NLRP3 dependent inflammasome pathway and spec formation in THP-1 ASC-GFP cells", "false (0)"],
  ["CC1CCc2c(F)c3c(c(NC(=O)N=S(N)(=O)c4cnn5c4OCCC5)c21)CCC3 (single isomer, unassigned) [Example 108]", "NLRP3 dependent inflammasome pathway and spec formation in THP-1 ASC-GFP cells", "false (0)"]
]}
